molecular target: Atto488-labeled Survivin120 (human); experiment: fluorescence polarisation; fluorescence anisotropy competition; Atto488-Survivin120 preincubated with CRM1_1-1062VLV430AAA at 1:5, titrated with tweezers to approx. 180 µM; PBS pH 7.4, 25 °C; n = 1
measured-attribute: pIC50
Entry type: numeric. Quantity: pIC50, the -log10 of concentration in molar units.

# pIC50 (substance: TW-ELTLGEFL (asymmetrical molecular tweezer linked to the elongated peptide ELTLGEFL) ) is 4.92
